src = ChEMBL document CHEMBL4038311

System: HT-1080
run_description: Anticancer activity against human HT1080 cells assessed as cell viability after 48 hrs by CCK8 assay
Type: functional, cell-based
condition_label: HT-1080, 48 h
attribute_measured: IC50 (µM)

1) C[C@H]1[C@H](C)CC[C@]2(C(=O)O)CC[C@]3(C)C(=CC[C@@H]4[C@@]5(C)Cc6cnn(-c7ccc(C#N)cc7)c6C(C)(C)[C@@H]5CC[C@]43C)[C@H]12    17.2

---

run_description: Cytotoxicity against HDF assessed as cell viability at 20 uM after 24 to 48 hrs by CCK8 assay relative to control
Format: cell-based
condition_label: human, HDF cells; read-out: Activity
attribute_measured: viability at 20 µM (%)

1) C[C@H]1[C@H](C)CC[C@]2(C(=O)O)CC[C@]3(C)C(=CC[C@@H]4[C@@]5(C)Cc6cnn(-c7ccc(C#N)cc7)c6C(C)(C)[C@@H]5CC[C@]43C)[C@H]12    28
